TARGET_OF_ASSAY: Nuclear receptor coactivator 2 (Homo sapiens) (UniProt Q15596)
Sequence (Q15596 whole entry, looked up): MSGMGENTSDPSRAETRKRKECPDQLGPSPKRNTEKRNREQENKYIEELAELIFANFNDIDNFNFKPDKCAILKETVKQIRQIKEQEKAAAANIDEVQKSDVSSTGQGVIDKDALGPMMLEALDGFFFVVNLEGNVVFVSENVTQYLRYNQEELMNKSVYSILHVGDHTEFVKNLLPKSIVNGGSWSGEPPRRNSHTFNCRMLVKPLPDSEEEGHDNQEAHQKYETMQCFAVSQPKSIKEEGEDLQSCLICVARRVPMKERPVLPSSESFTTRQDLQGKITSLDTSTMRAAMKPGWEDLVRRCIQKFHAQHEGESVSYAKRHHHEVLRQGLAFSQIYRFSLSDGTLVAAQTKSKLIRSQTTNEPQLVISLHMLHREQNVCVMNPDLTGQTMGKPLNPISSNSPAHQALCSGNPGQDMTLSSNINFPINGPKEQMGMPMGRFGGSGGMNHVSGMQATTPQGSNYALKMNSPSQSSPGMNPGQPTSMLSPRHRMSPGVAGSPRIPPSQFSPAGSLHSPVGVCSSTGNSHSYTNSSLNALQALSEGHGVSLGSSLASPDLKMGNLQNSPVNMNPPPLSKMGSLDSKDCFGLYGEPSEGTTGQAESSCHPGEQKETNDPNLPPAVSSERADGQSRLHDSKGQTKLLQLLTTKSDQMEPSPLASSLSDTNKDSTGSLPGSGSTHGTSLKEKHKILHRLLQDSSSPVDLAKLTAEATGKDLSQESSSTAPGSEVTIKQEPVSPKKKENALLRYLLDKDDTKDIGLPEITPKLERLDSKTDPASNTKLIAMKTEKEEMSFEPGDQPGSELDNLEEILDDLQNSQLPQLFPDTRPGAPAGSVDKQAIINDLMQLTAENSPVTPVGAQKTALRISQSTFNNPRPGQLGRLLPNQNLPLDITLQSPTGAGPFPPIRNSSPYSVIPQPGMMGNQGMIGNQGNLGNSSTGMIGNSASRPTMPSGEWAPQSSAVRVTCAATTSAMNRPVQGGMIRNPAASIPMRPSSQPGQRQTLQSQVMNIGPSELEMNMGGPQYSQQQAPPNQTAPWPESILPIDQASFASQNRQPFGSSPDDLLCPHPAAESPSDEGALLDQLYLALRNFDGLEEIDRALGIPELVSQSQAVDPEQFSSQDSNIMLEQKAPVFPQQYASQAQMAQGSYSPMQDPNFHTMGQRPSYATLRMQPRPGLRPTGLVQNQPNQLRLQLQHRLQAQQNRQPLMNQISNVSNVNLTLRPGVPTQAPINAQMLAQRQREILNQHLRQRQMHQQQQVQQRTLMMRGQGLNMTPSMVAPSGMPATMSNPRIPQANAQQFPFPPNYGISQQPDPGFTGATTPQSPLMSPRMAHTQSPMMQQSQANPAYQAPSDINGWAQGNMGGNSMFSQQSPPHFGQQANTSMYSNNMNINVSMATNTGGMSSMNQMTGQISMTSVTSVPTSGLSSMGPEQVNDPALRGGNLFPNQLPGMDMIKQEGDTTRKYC
EXPERIMENT_NOTES: SRC2 coactivator transcriptional activity inhibitors, confirmation, cell-based, luminescence, HEK293, triplicate (AID 652008);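 further: 0% = DMSO-treated cells and 100% = Gossypol at 36 µM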
PROTOCOL_CONDITIONS: HEK293 GAL4-SRC2 luciferase reporter, at 8.9 µM, active compounds read high
PROPERTY_LABEL: inhibition (%)
Number only, in %; omit the unit.

Ask: Please look at COc1ccc(C(=O)O/N=C(\N)c2ccccn2)cc1 and tell me its recorded inhibition on Nuclear receptor coactivator 2 (Homo sapiens) (UniProt Q15596).
Reply: 30

Ask: Please look at Cc1nc([N+](=O)[O-])c(Sc2nc3ccccc3[nH]2)n1Cc1ccccc1 and tell me its recorded inhibition on Nuclear receptor coactivator 2 (Homo sapiens) (UniProt Q15596).
Reply: 32.5

Ask: Please look at CCOC(=O)C1=CCN(S(=O)(=O)c2ccc(C)cc2)C1c1ccccc1F (centres undefined) and tell me its recorded inhibition on Nuclear receptor coactivator 2 (Homo sapiens) (UniProt Q15596).
Reply: -7.88

Continue with the next molecule.
Ask: Please look at CCCC(=O)N1CCN(c2ccc(NC(=O)c3cc4ccccc4o3)cc2Cl)CC1 and tell me its recorded inhibition on Nuclear receptor coactivator 2 (Homo sapiens) (UniProt Q15596).
Reply: 27.2

###

TARGET_OF_ASSAY: Steroidogenic factor 1 (Homo sapiens) (UniProt Q13285)
Sequence (Q13285 whole entry, looked up): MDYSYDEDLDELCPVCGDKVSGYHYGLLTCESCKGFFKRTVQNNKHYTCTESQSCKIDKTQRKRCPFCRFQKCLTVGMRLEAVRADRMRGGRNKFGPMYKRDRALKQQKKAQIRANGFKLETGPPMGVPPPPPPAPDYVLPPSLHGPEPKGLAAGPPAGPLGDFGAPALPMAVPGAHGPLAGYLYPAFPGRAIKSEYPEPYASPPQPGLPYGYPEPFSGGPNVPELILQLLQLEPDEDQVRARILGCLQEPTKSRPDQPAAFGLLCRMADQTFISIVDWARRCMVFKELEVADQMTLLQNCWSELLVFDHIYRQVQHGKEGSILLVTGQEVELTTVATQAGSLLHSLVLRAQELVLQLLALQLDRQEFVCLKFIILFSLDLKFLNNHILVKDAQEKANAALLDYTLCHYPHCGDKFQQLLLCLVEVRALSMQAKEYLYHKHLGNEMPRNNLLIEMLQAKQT
EXPERIMENT_NOTES: SF1 (NR5A1) inverse agonists, counter-screen for LRH-1 inverse agonist project, cell-based, luminescence, high throughput (AID 651614);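 further: cells cotransfected with StAR promoter reporter and SF1 expression vector; 0% = vehicle on cells with receptor and 100% = vehicle on cells lacking receptor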
PROTOCOL_CONDITIONS: cell-based SF1 luciferase reporter, at 3.6 µM, active compounds read high
PROPERTY_LABEL: inhibition (%)
Number only, in %; omit the unit.

Ask: Report inhibition, nothing else, for this molecule: COc1cccc(/C=N/Nc2ccc(C(=O)O)cc2)c1O
Reply: 73

Ask: Report inhibition, nothing else, for this molecule: Cc1csc(NC(=O)CSc2nc3[nH]c(=O)cc(O)c3s2)n1
Reply: 68.1

Ask: Report inhibition, nothing else, for this molecule: COc1ccc(-c2nc(C(N)=O)c3[nH]c(=O)n(-c4cccc(Cl)c4)c3n2)cc1OC
Reply: 56.5

Ask: Report inhibition, nothing else, for this molecule: CC1CCC2(CC1)NC(=O)N(CC(=O)Nc1ccc3c(c1)OCCCO3)C2=O (stereo not drawn)
Reply: 44.8

Ask: Report inhibition, nothing else, for this molecule: O=C(NCc1cccnc1)c1ccc([N+](=O)[O-])o1
Reply: 63.4

Ask: Report inhibition, nothing else, for this molecule: CN(C)CCOc1ccc2c(c1)C(=O)C(=Cc1ncc([N+](=O)[O-])n1C)C2
Reply: 73.7

Ask: Report inhibition, nothing else, for this molecule: Cc1ccc(S(=O)(=O)/N=C2\C=C(Nc3ccc(O)cc3)C(=O)c3ccccc32)cc1
Reply: 94.6

Ask: Report inhibition, nothing else, for this molecule: COc1ccc(N2CCN(C(=O)CSc3nnc(-c4cc5ccccc5cc4O)n3C)CC2)cc1
Reply: 58.3

###

Tested on: transactivating tegument protein VP16 (Human herpesvirus 1)
EXPERIMENT_NOTES: VP16 transactivation reporter inhibitors, counter-screen for SRC2 inhibitor project, cell-based, luminescence, single concentration (AID 652007)
PROTOCOL_CONDITIONS: cell-based VP16 transactivation luciferase reporter, at 8.9 µM, active compounds read high
Everything with inhibition lower than 10% is Criterion not met; everything else, including exactly 10%, is Criterion met.

Ask: Tell me whether inhibition is at least 10% here: O=C(NC(c1ccc(F)cc1)c1ccc2ccccc2n1)C1CCN(CCOc2ccc(F)cc2)CC1 (stereo not given)
Reply: Criterion not met

Ask: Tell me whether inhibition is at least 10% here: CCOc1cc(/C=C2\COc3ccccc3C2=O)ccc1OCC(=O)N(C)C
Reply: Criterion met

Ask: Tell me whether inhibition is at least 10% here: Cc1ccc(-n2c(C)c([N+](=O)[O-])c3ccc(O)cc32)cc1
Reply: Criterion not met

Ask: Tell me whether inhibition is at least 10% here: O=[N+]([O-])c1cc(Br)c(Nc2ccccc2)c([N+](=O)[O-])c1
Reply: Criterion not met

Ask: Tell me whether inhibition is at least 10% here: CNC(=O)c1nnsc1S(=O)(=O)c1ccc(Cl)cc1
Reply: Criterion met

Ask: Tell me whether inhibition is at least 10% here: CC(C)Nc1ncnc2ccc(Br)cc12
Reply: Criterion met

Continuing:
Ask: Tell me whether inhibition is at least 10% here: CCN(C(=O)c1cc(S(=O)(=O)N2CCCCC2)c[nH]1)c1ccc(OC)cc1
Reply: Criterion not met

Ask: Tell me whether inhibition is at least 10% here: CCn1ccnc1CN(C)Cc1cn[nH]c1-c1ccc(F)cc1F
Reply: Criterion not met

Ask: Tell me whether inhibition is at least 10% here: CCc1ccc(/C=C2\SC(=S)N(CCCC(=O)NC3=NCCS3)C2=O)cc1
Reply: Criterion met

Ask: Tell me whether inhibition is at least 10% here: Cc1cc(=O)n2c3c(c4c(cc13)c(CN(C)C)cc(=O)n4C)OC2
Reply: Criterion not met

Ask: Tell me whether inhibition is at least 10% here: CS(=O)(=O)Nc1cccc(NC(=O)C2Cc3c(-c4cccc(F)c4)ccnc3O2)c1 (stereo not given)
Reply: Criterion met

Ask: Tell me whether inhibition is at least 10% here: C=C1C(=O)[C@]23C[C@H]1CCC2[C@@]1(C)C(C[C@@H]3O)[C@](C)(C(=O)OC)CC[C@@H]1OC(C)=O (stereo not given in full)
Reply: Criterion met

Ask: Tell me whether inhibition is at least 10% here: O=S(=O)(Nc1cc(Sc2cccc3cccnc23)c(O)c2ccccc12)c1ccccc1
Reply: Criterion met

Ask: Tell me whether inhibition is at least 10% here: O=C(NCCS(=O)(=O)N1CCN(c2ccc(F)cc2)CC1)c1ccc(Br)o1
Reply: Criterion not met

Ask: Tell me whether inhibition is at least 10% here: CC(=O)N1CCCc2cc(S(=O)(=O)N3CCCC(C(=O)N4CCN(c5cccc(Cl)c5)CC4)C3)ccc21 (stereo not given)
Reply: Criterion met

Ask: Tell me whether inhibition is at least 10% here: Cc1nnc(-c2ccccc2)c(=O)n1/N=C/c1c(O)ccc2ccccc12
Reply: Criterion not met

Ask: Tell me whether inhibition is at least 10% here: CC(=C\c1ccccc1)/C=C1/SC(=S)N(CCCC(=O)O)C1=O
Reply: Criterion met

Ask: Tell me whether inhibition is at least 10% here: CCOc1ccc(-c2cc(CCCC(=O)NCCc3ccc(OC)c(OC)c3OC)no2)cc1
Reply: Criterion met

Ask: Tell me whether inhibition is at least 10% here: N#Cc1sc2nccc(Nc3ccccc3)c2c1N
Reply: Criterion not met

###

TARGET_OF_ASSAY: Oxysterols receptor LXR-beta (Homo sapiens) (UniProt P55055)
Sequence (P55055 whole entry, looked up, the tested form may be a part): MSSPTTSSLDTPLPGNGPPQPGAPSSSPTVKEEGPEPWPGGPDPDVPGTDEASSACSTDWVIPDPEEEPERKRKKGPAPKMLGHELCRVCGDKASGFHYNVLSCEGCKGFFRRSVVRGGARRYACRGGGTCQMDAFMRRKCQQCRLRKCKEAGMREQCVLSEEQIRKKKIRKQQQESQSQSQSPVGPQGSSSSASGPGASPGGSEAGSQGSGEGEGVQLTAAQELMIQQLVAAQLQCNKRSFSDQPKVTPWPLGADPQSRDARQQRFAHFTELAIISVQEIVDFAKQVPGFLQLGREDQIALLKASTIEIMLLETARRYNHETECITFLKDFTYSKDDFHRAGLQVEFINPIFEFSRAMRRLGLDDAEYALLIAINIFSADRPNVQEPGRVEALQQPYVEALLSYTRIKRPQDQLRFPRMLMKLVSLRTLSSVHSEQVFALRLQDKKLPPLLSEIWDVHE
EXPERIMENT_NOTES: LXR agonists, Gal4 luciferase reporter, confirmation, counter-screen for hgDAF-12 agonist project, cell-based, luminescence, HEK293, H. glycines campaign (AID 743051)
PROTOCOL_CONDITIONS: 24 h, at 6.8 µM, active compounds read high
This is one part of the list. Activity calls are given as the source filed them.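 The calls were made as follows: active = mean activation of the triplicate above a set limit carried over from the primary screen, none filed active; inactive = the rest.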
PROPERTY_LABEL: activation

Ask: Report activation, nothing else, for this compound: Cc1ccc(NC(=O)c2csc3c2CCCC3)cc1
Reply: 0.8% (inactive)

Continuing:
Ask: Report activation, nothing else, for this compound: CCOc1ccc(OCc2cccc(C(=O)N(CC)CC)c2)cc1
Reply: 0.78% (inactive)

Ask: Report activation, nothing else, for this compound: c1cnc(N2CCN(c3ccc4ccccc4n3)CC2)nc1
Reply: 0.78% (inactive)

###

TARGET_OF_ASSAY: Serine protease HTRA1 (Homo sapiens)
EXPERIMENT_NOTES: HTRA1 protease inhibitors, retest, confirmation, biochemical, fluorescence polarization (AID 540248);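 further: 0% = HTRA1 with DMSO and 100% = wells lacking HTRA1; inhibitors block probe binding so polarization drops and inhibition rises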
PROTOCOL_CONDITIONS: recombinant HTRA1, FP-rhodamine activity-based probe, at 5.96 µM, active compounds read high
The list shows a part of the results.
Catalogue of inhibition values
Number only, in %; omit the unit.

Ask: Report inhibition, nothing else, for this compound: Cc1ccc(Nc2ccccc2N)cc1
Reply: 53.1

Ask: Report inhibition, nothing else, for this compound: CC[C@@H]1Cc2cc(O)ccc2C2=C1c1ccc(O)cc1C[C@H]2CC
Reply: 47

Ask: Report inhibition, nothing else, for this compound: O=C(N/N=C/c1ccc(O)c(O)c1)C1c2ccccc2Oc2ccccc21
Reply: 76.6

Ask: Report inhibition, nothing else, for this compound: CN1c2ccc(C=O)c3c(C=O)ccc(c23)N(C)C1(C)C
Reply: 46.9

Ask: Report inhibition, nothing else, for this compound: CCOC(=O)C1Nc2ccc(C(F)(F)F)cc2C2C=CCC12 (stereo unspecified)
Reply: 30.3

Continuing:
Ask: Report inhibition, nothing else, for this compound: NC(=O)NC(=O)C(OC(=O)CCNS(=O)(=O)c1ccccc1)c1ccccc1 (stereo unspecified)
Reply: 23.1
